- protocol details: Stability of ddCTP in intact ddCTP-loaded erythrocytes
- Type: in vitro ADME, human
- condition parameters: human, erythrocytes; incubation time over 3 h, 37° C; read-out: decay of ddCTP
- Description: In this case the stability of ddCTP (1 mM) in loaded erythrocytes was evaluated at 37° C. by incubation of ddCTP-loaded erythrocytes at 6% hematocrit in 0.9% (w/v) NaCl containing 10 mM glucose, 5 mM sodium, potassium phosphate buffer, pH 7.4. […] In this case fractions of 0.3 ml were collected at the exit of the wavelength detector of the HPLC system by using an LKB fraction collector and counted in a Packard liquid scintillation Counter. […]
readout name: metabolised at 3 h, 1000 µM (%)
Give bare numbers, in %.

Can you share its metabolised at 3 h, 1000 µM? I mean this molecule: Nc1ccn([C@H]2CC[C@@H](COP(=O)(O)OP(=O)(O)OP(=O)(O)O)O2)c(=O)n1 [ddCTP, 2',3'-dideoxycytidine-5'-triphosphate]
20
